TEST TARGET: human GPR120 (Homo sapiens)
Construct: host or cells: CHO-K1
MEASUREMENT NOTES: GPR120 β-Arrestin Recruitment Assay (PathHunter, CHO-K1 cells)
Assay type: cell-based
ASSAY CONTEXT: pEC50=−log(EC50) from curve fit; CHO-K1 cells, 90 min incubation; read-out: β-Arr pEC50 (converted)
Sequence (Q5NUL3 1-377 isoform Q5NUL3-1): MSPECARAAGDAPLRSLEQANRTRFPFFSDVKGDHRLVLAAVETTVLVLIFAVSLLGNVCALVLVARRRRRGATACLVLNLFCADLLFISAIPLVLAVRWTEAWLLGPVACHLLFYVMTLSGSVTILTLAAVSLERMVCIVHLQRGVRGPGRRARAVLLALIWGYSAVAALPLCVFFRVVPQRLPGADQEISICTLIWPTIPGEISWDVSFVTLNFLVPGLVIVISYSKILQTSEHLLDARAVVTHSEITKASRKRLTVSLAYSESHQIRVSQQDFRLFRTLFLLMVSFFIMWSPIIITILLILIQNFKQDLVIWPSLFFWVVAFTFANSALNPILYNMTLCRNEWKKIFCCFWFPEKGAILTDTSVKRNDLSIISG
Sequence (P32121 whole entry partner): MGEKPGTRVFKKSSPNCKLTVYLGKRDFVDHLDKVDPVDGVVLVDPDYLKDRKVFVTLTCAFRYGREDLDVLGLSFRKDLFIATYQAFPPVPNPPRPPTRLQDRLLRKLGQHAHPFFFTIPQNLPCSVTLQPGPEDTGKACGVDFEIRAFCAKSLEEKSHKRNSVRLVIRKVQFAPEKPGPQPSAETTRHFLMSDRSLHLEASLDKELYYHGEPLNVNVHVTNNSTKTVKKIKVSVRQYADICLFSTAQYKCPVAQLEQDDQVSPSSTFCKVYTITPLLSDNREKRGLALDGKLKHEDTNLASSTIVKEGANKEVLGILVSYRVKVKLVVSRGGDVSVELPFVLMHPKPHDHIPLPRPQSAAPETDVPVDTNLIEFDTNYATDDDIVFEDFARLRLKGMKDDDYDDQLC
EXPERIMENTAL ENDPOINT: EC50

QUERY: For the record `O=S1(=O)c2ccccc2CN1c1cccc(Oc2ccccc2Cl)n1` , what value of EC50 is listed for human GPR120 (Homo sapiens)?
RESULT: > 31.6 µM

QUERY: For the record CC(=O)N1CCC(Oc2nccc(N3Cc4ccccc4S3(=O)=O)n2)C1 (stereo not drawn) , what value of EC50 is listed for human GPR120 (Homo sapiens)?
RESULT: > 31.6 µM

QUERY: For the record `O=S1(=O)c2ccccc2CN1c1cccc(Oc2cccc(Cl)c2)n1` , what value of EC50 is listed for human GPR120 (Homo sapiens)?
RESULT: > 31.6 µM

----------
TEST TARGET: human GPR120 (Homo sapiens)
Construct: host or cells: CHO-K1
MEASUREMENT NOTES: GPR120 β-Arrestin Recruitment Assay (PathHunter, CHO-K1 cells)
Format: cell-based
ASSAY CONTEXT: pEC50=−log(EC50) from curve fit; CHO-K1 cells, 90 min incubation; read-out: β-Arr pEC50 (converted)
EXPERIMENTAL ENDPOINT: EC50

QUERY: I am curious: what EC50 value has been reported for `O=C1c2ccccc2CN1c1cccc(Oc2cccc(Cl)c2)n1` ?
RESULT: > 31.6 µM

QUERY: I am curious: what EC50 value has been reported for `COc1ccc2c(c1)C(=O)N(c1ccnc(Oc3cccnc3)n1)C2` ?
RESULT: > 10 µM

QUERY: I am curious: what EC50 value has been reported for `CN1CCC(Oc2nccc(N3Cc4ccccc4S3(=O)=O)n2)CC1` ?
RESULT: > 31.6 µM

QUERY: I am curious: what EC50 value has been reported for `CC1(C)c2ccccc2S(=O)(=O)N1c1ccnc(Oc2cccnc2)n1` ?
RESULT: > 10 µM

QUERY: I am curious: what EC50 value has been reported for `O=C1c2cccnc2CN1c1ccnc(Oc2cccnc2)n1` ?
RESULT: > 31.6 µM

QUERY: I am curious: what EC50 value has been reported for O=S1(=O)c2ccccc2CN1c1ccnc(OC2CCOC2)n1 (stereo not drawn) ?
RESULT: > 10 µM

QUERY: I am curious: what EC50 value has been reported for `O=S1(=O)c2ccccc2CN1c1cccc(OC2CCC2)n1` ?
RESULT: > 31.6 µM

QUERY: I am curious: what EC50 value has been reported for `Cc1cc(Oc2cccnc2)nc(N2Cc3cccnc3C2=O)c1` ?
RESULT: > 10 µM

QUERY: I am curious: what EC50 value has been reported for `NC(=O)COc1nccc(N2Cc3ccccc3S2(=O)=O)n1` ?
RESULT: > 31.6 µM

----------
TEST TARGET: human GPR120 (Homo sapiens)
Construct: expressed in transfected cells; host or cells: CHO-K1 coexpressing Gα16 and mitochondrial apoaequorin
MEASUREMENT NOTES: Human GPR120 Calcium-Release Assay (aequorin luminescence, CHO-K1 cells)
Format: cell-based
ASSAY CONTEXT: pEC50=−log(EC50) from curve fit; short variant of human GPR120 in CHO-K1 with Gα16 and apoaequorin; read-out: Ca2+ pEC50 (converted)
Sequence (Q5NUL3 whole entry): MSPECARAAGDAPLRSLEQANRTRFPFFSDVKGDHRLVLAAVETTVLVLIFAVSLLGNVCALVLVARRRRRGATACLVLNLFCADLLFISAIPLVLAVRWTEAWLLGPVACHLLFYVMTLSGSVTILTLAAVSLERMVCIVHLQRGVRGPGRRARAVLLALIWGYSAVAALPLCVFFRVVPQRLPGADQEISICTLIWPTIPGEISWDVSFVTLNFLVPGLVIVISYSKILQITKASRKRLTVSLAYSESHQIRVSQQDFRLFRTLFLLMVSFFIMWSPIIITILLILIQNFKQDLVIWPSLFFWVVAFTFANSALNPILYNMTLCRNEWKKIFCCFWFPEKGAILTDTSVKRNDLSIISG
Kindly state EC50 for each of the entries shown.
Supply the numeric figure in nM, leaving out any unit text.

QUERY: I am curious: what EC50 value has been reported for `Cc1cc(Oc2ccc(Cl)cc2)nc(N2Cc3ccccc3S2(=O)=O)c1` ?
RESULT: 316

QUERY: I am curious: what EC50 value has been reported for `O=S1(=O)c2ccccc2CN1c1ccnc(OC2CCC2)n1` ?
RESULT: 631

QUERY: I am curious: what EC50 value has been reported for `Cc1cncc(Oc2nccc(N3Cc4ccccc4S3(=O)=O)n2)c1` ?
RESULT: 794

QUERY: I am curious: what EC50 value has been reported for `O=S1(=O)c2ccccc2CN1c1nccc(Oc2cccnc2)n1` ?
RESULT: 15800

QUERY: I am curious: what EC50 value has been reported for `O=S1(=O)c2ccccc2CN1c1cc(C(F)(F)F)nc(Oc2ccc(Cl)cc2)n1` ?
RESULT: 1000

QUERY: I am curious: what EC50 value has been reported for `O=S1(=O)c2ccccc2CN1c1ccnc(Oc2cncc(Cl)c2)n1` ?
RESULT: 1000

QUERY: I am curious: what EC50 value has been reported for `O=S1(=O)c2ccccc2CN1c1cc(C(F)(F)F)nc(Oc2ccccc2)n1` ?
RESULT: 2510

QUERY: I am curious: what EC50 value has been reported for `Cc1ccc(Oc2nccc(N3Cc4ccccc4S3(=O)=O)n2)cc1Cl` ?
RESULT: 200

QUERY: I am curious: what EC50 value has been reported for `CCc1cc(N2Cc3ccccc3S2(=O)=O)nc(Oc2cccnc2)n1` ?
RESULT: 1260

QUERY: I am curious: what EC50 value has been reported for `Cc1cc(N2Cc3ccccc3S2(=O)=O)nc(Oc2cccnc2)n1` ?
RESULT: 1000

QUERY: I am curious: what EC50 value has been reported for `O=S1(=O)c2ccccc2CN1c1cccc(Oc2cccnc2)n1` ?
RESULT: 200

QUERY: I am curious: what EC50 value has been reported for `COc1cc(N2Cc3ccccc3S2(=O)=O)nc(Oc2cccnc2)n1` ?
RESULT: 501

QUERY: I am curious: what EC50 value has been reported for `COc1cncc(Oc2nccc(N3Cc4ccccc4S3(=O)=O)n2)c1` ?
RESULT: 6310

QUERY: I am curious: what EC50 value has been reported for `O=C1c2ccccc2CN1c1cccc(Oc2cccnc2)n1` ?
RESULT: 501

QUERY: I am curious: what EC50 value has been reported for `O=S1(=O)c2ccccc2CN1c1cc(C(F)(F)F)nc(Oc2cccnc2)n1` ?
RESULT: 3980

QUERY: I am curious: what EC50 value has been reported for `O=S1(=O)c2ccccc2CN1c1ccnc(Oc2cccnc2)n1` ?
RESULT: 7940

QUERY: I am curious: what EC50 value has been reported for `O=S1(=O)c2ccccc2CN1c1ccnc(Oc2ccc(Cl)cc2)n1` ?
RESULT: 501

QUERY: I am curious: what EC50 value has been reported for `COc1cc(N2Cc3ccccc3S2(=O)=O)nc(Oc2ccc(F)cc2)n1` ?
RESULT: 158

QUERY: I am curious: what EC50 value has been reported for `O=S1(=O)c2ccccc2CN1c1ccnc(OC2CCCC2)n1` ?
RESULT: 501

QUERY: I am curious: what EC50 value has been reported for `O=S1(=O)c2ccccc2CN1c1ccnc(Oc2ccc(Br)cc2)n1` ?
RESULT: 794

QUERY: I am curious: what EC50 value has been reported for `COc1ccc(Oc2nccc(N3Cc4ccccc4S3(=O)=O)n2)cc1` ?
RESULT: 1580

QUERY: I am curious: what EC50 value has been reported for `CCOc1nccc(N2Cc3ccccc3S2(=O)=O)n1` ?
RESULT: 6310

QUERY: I am curious: what EC50 value has been reported for `O=S1(=O)c2ccccc2CN1c1cncc(Oc2cccnc2)n1` ?
RESULT: 1260

QUERY: I am curious: what EC50 value has been reported for `O=S1(=O)c2ccccc2CN1c1ccnc(Oc2cccc(F)c2)n1` ?
RESULT: 200

----------
TEST TARGET: human GPR120 (Homo sapiens)
Construct: host or cells: CHO-K1
MEASUREMENT NOTES: GPR120 β-Arrestin Recruitment Assay (PathHunter, CHO-K1 cells)
Assay type: cell-based
ASSAY CONTEXT: pEC50=−log(EC50) from curve fit; CHO-K1 cells, 90 min incubation; read-out: β-Arr pEC50 (converted)
Kindly state EC50 for each of the entries shown.

QUERY: I am curious: what EC50 value has been reported for CN(C)C(=O)c1cc(Oc2ccc(Cl)cc2)nc(N2Cc3ccccc3S2(=O)=O)c1 [Compound 139] ?
RESULT: > 10 µM

QUERY: I am curious: what EC50 value has been reported for O=S1(=O)c2ccccc2CN1c1nccc(OC2CC(F)(F)C2)n1 [Compound 94] ?
RESULT: > 10 µM

QUERY: I am curious: what EC50 value has been reported for O=S1(=O)c2ccccc2CN1c1ccnc(Oc2cccc(F)c2)n1 [Compound 37] ?
RESULT: 1 µM

QUERY: I am curious: what EC50 value has been reported for O=C1Cc2ccccc2N1c1nccc(Oc2cccnc2)n1 [Compound 120] ?
RESULT: > 31.6 µM

QUERY: I am curious: what EC50 value has been reported for Cc1ccc(Oc2nccc(N3Cc4ccccc4S3(=O)=O)n2)cn1 [Compound 18] ?
RESULT: > 10 µM

QUERY: I am curious: what EC50 value has been reported for COc1ccc(-c2cc(N3Cc4ccccc4S3(=O)=O)nc(Oc3cccnc3)n2)cc1 [Compound 85] ?
RESULT: > 31.6 µM
